# Tested on: NCI-H460
# PROTOCOL NOTES: cells
# Type: functional, cell-based
# CONDITION SET: Homo sapiens, NCI-H460, 96 h
# Description: Cytotoxicity against human NCI-H460 cells after 96 hrs by MTT assay
pIC50: −log10 of the molar value.
READOUT TYPE: pIC50

[[record]]
smiles_data = "COc1ncc(-c2cc3c(C)nc(N)nc3n([C@H]3CC[C@H](OCCO)CC3)c2=O)cc1NS(=O)(=O)c1ccc(F)cc1F"
measured_value = 6.44

[[record]]
smiles_data = "COc1ncc(-c2cc(OC3CCOCC3)c3nc(N)nc(C)c3c2)cc1NS(=O)(=O)c1ccc(F)cc1Cl"
measured_value = 7.77

[[record]]
smiles_data = "COc1ncc(-c2cc(OC3CCC(F)(F)CC3)c3nc(N)nc(C)c3c2)cc1NS(=O)(=O)c1ccc(F)cc1F"
measured_value = 7.08

[[record]]
smiles_data = "Cc1ncc(-c2cc(OC3CCOCC3)c3nc(N)nc(C)c3c2)cc1NS(=O)(=O)c1ccc(F)cc1F"
measured_value = 5.68

[[record]]
smiles_data = "CNc1nc(C)c2cc(-c3cnc(OC)c(NS(=O)(=O)c4ccc(F)cc4F)c3)cc(OC3CCOCC3)c2n1"
measured_value = 7.23

[[record]]
smiles_data = "Cc1nc(N)nc2c(OC3CCOCC3)cc(-c3cnc(Cl)c(NS(=O)(=O)c4ccc(F)cc4)c3)cc12"
measured_value = 5.92

[[record]]
smiles_data = "COc1ncc(-c2cc(OC3CCOCC3)c3nc(N(C)C)nc(C)c3c2)cc1NS(=O)(=O)c1ccc(F)cc1F"
measured_value = 5.37

[[record]]
smiles_data = "CNc1nc(C)c2cc(-c3cnc(OC)c(NS(=O)(=O)c4ccc(F)cc4F)c3)cc(OC3CCCCC3)c2n1"
measured_value = 5.77


====

# Test system: NCI-H460;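 also: cytotoxicity determined with an MTT assay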
# PROTOCOL NOTES: cells
# Format: functional, cell-based
# CONDITION SET: Homo sapiens, NCI-H460, 96 h
READOUT TYPE: IC50 (nM)

[[record]]
smiles_data = "COc1ncc(-c2cc(O[C@@H]3CCOC3)c3nc(N)nc(C)c3c2)cc1NS(=O)(=O)c1ccc(F)cc1F"
measured_value = 93

[[record]]
smiles_data = "COc1ncc(-c2cc(OC3CCOCC3)c3nc(NC(C)=O)nc(C)c3c2)cc1NS(C)(=O)=O"
measured_value = 3200

[[record]]
smiles_data = "COc1ncc(-c2cc(OC3CCOCC3)c3nc(NCC4CC4)nc(C)c3c2)cc1NS(=O)(=O)c1ccc(F)cc1F"
measured_value = 410

[[record]]
smiles_data = "COc1ncc(-c2cc(O[C@H]3CCOC3)c3nc(N)nc(C)c3c2)cc1NS(=O)(=O)c1ccc(F)cc1F"
measured_value = 94

